Hey, just so you know, these numbers are from PubChem BioAssay (EPA / NIEHS).

Experiment: ATG_GLI_CIS: Attagene CIS-FACTORIAL HepG2 Assay for human Zinc Finger Protein GLI1 (AID 2282945)
Settings: HepG2, Attagene cis-factorial reporter mRNA, GLI element; actives raise or lower the signal
Protocol: ATG_CIS is a cell-based, multiplexed-readout assay that uses HepG2, a human liver cell line, with measurements taken at 24 hours after chemical dosing in a 24-well plate.ATG_GLI_CIS is one of 52 assay component(s) measured or calculated from the ATG_CIS assay. […] This assay endpoint, ATG_GLI_CIS, was analyzed with bidirectional fitting relative to DMSO as the negative control and baseline of activity. […]
The source made the active and inactive calls. The calls were made as follows: active = hit-call score of the fitted dose curve at least 0.9, where 1 is the maximum; inactive = score below 0.9.
Labels: class 1 for active, class 0 for inactive

compound	qualitative-label
C1CCC(NC2CCCCC2)CC1	class 0
CCC[CH2][Sn]([CH2]CCC)([CH2]CCC)[O]C(=O)c1ccccc1	class 0
C[C@]12CC[C@H](O)CC1=CC[C@@H]1[C@@H]2CC[C@]2(C)C(=O)CC[C@@H]12	class 0
Oc1c(I)cc(I)cc1I	class 1
N#CCCO	class 0
O=C(O)Cc1ccccc1	class 0
CC(C)CCCCCCOC(=O)c1ccccc1C(=O)OCCCCCCC(C)C	class 0
C=C(C)C#N	class 0
CCC(C)c1cccc(C(C)CC)c1O (stereo unspecified)	class 0
O=C(Cc1ccccc1)c1ccccc1	class 0
CCOP(OCC)OCC	class 0
ClC1(Cl)C2(Cl)C3(Cl)C4(Cl)C(Cl)(Cl)C5(Cl)C3(Cl)C1(Cl)C5(Cl)C24Cl (stereo unspecified)	class 0
CC(=O)[O][Hg][c]1ccccc1	class 0
CCC(=O)C(CC(C)N(C)C)(c1ccccc1)c1ccccc1 (stereo unspecified)	class 0
O=C(O)C(Cl)(Cl)Cl	class 0
CC(C)OC(=O)Nc1ccccc1	class 0
CNC	class 0
CC(C)(c1ccccc1)c1ccc(O)c(C(C)(C)c2ccccc2)c1	class 0
O=C(Cl)c1ccc(Cl)cc1	class 0
CC(=O)C=C(C)C	class 0
C[C@H]1CCCC(=O)CCC/C=C/c2cc(O)cc(O)c2C(=O)O1	class 0
COS(=O)(=O)c1ccc(C)cc1	class 0
COc1ccc(C=O)cc1OC	class 0
O=P(O)(O)CN(CP(=O)(O)O)CP(=O)(O)O	class 0
CC(C)c1ccc(CO)cc1	class 0
O=Cc1cccc(Oc2ccccc2)c1	class 0
O=C(CCl)CCl	class 0
Cc1ccc(N)cc1Cl	class 0
COP(=S)(OC)Oc1c(Cl)cc(C)cc1Cl	class 0
COP(=O)(OC)OC	class 0
Nc1cccc2ccccc12	class 0
CC(=O)C(Cl)C(=O)N(C)C (stereo unspecified)	class 0
CCOC(=O)/C=C(C)/C=C/C[C@@H](C)CCCC(C)C	class 1
COc1cc(OC)nc(NC(=O)NS(=O)(=O)c2ncccc2C(=O)N(C)C)n1	class 0
CC(Br)C(=O)O (stereo unspecified)	class 0
CCOP(=S)(OCC)Oc1nc(Cl)c(Cl)cc1Cl	class 1
CCCCP(CCCC)CCCC	class 0
CCC1(c2ccc(N)cc2)CCC(=O)NC1=O (stereo unspecified)	class 0
CCN(CC)C(=O)Cl	class 0
CCOP(=S)(OCC)SCSP(=S)(OCC)OCC	class 0
CC1(C)Cc2cccc(O)c2O1	class 0
COc1ccc(C=O)cc1	class 0
O=c1[nH]c(=O)[nH]c(=O)[nH]1	class 0
CN(C)P(=O)(N(C)C)N(C)C	class 0
Nc1ccc(-c2ccc(N)c(Cl)c2)cc1Cl	class 0
Cc1cc(=O)[nH]o1	class 0
Cc1cc(Cl)ccc1O[C@H](C)C(=O)O	class 0
[O-][Cl+2]([O-])O	class 0
N#CCc1ccc(Cl)cc1	class 0
N#Cc1ccccn1	class 0
CCC(C)(C)c1ccc(O)c(C(C)(C)CC)c1	class 0
Nc1cccc(Cl)c1	class 0
CCC(=O)c1ccccc1	class 0
CCSC(C)CC1CC(=O)C(C(CC)=NOC/C=C/Cl)=C(O)C1 (stereo unspecified)	class 0
Cl/C=C\C[N+]12CN3CN(CN(C3)C1)C2	class 0
Clc1ccc(C2(Cn3cncn3)CC(Br)CO2)c(Cl)c1 (stereo unspecified)	class 0
CCOP(=S)(OCC)SCCS(=O)(=O)CC	class 0
CC1(C)CCC(Cc2ccc(Cl)cc2)C1(O)Cn1cncn1 (stereo unspecified)	class 0
NC(=S)Nc1ccccc1	class 0
CCOP(=S)(OCC)Oc1ccc(S(C)=O)cc1 (stereo unspecified)	class 0
Oc1ccc(-c2ccccc2)cc1	class 0
